- system tested: Ba/F3(EML4-ALK) cells (Homo sapiens)
- Construct: fused on or other part: Q9HC35 (Echinoderm microtubule-associated protein-like 4)
- Sequence (Q9UM73 whole entry, change not shown, the tested form may be a part): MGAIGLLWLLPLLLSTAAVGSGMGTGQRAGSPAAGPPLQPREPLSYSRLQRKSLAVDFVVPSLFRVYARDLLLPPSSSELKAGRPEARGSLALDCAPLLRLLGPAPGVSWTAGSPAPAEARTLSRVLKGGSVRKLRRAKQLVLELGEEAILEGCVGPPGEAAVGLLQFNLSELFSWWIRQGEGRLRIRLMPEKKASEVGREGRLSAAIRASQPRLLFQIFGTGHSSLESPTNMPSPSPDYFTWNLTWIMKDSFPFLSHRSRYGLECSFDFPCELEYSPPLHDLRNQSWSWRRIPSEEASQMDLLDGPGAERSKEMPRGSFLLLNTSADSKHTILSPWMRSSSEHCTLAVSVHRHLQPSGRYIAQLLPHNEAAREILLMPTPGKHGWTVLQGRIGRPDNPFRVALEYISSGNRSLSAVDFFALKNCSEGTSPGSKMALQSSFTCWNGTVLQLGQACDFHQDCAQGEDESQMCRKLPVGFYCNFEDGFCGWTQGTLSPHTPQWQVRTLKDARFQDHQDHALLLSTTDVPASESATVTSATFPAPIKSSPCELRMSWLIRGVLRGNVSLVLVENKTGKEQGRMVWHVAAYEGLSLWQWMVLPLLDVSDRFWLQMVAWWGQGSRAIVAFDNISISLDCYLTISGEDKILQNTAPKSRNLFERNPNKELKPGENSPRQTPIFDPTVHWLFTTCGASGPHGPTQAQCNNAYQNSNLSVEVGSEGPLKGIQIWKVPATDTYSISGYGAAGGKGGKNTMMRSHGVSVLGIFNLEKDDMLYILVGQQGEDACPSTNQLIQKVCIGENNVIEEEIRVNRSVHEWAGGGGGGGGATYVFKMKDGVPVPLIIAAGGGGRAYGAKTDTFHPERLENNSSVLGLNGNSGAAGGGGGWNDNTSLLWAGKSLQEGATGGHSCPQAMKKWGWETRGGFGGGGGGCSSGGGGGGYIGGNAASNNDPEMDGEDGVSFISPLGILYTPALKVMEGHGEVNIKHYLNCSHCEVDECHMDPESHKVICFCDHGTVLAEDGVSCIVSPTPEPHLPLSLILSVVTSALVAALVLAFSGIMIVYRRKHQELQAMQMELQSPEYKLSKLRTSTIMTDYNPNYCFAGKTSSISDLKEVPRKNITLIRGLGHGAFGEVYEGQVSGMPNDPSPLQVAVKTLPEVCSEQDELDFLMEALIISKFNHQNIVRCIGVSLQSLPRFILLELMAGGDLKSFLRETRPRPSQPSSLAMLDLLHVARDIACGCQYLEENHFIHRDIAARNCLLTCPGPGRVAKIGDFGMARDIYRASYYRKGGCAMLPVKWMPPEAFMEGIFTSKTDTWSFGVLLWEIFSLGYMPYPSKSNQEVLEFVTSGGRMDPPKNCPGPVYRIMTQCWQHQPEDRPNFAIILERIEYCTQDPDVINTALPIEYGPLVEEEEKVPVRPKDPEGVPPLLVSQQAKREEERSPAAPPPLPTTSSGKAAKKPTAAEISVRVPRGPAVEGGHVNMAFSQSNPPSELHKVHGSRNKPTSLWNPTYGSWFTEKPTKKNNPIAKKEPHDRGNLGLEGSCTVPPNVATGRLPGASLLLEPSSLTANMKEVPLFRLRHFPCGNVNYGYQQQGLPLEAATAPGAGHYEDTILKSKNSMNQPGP
- assay explanation: Assay of activity on Ba/F3(EML4-ALK) cells (CTG, 72 h)
- Format: cell-based
- assay context: read-out: IC50 (nM) Ba/F3(EML4-ALK)
# GI50 annotations

Entry COc1cc(N2CCC(N3CCN(CCCCCCCCCNc4cccc5c4CN(C4CCC(=O)NC4=O)C5=O)CC3)CC2)ccc1Nc1ncc(Cl)c(Nc2ccccc2P(C)(C)=O)n1 (centres unmarked) : reported GI50 = ?
1 to 100 nM

Cool, now COc1cc(N2CCC3(CCN(CCCCCC#Cc4ccc5c(c4)CN(C4CCC(=O)NC4=O)C5=O)CC3)CC2)c(C)cc1Nc1ncc(Br)c(Nc2ccc3nccnc3c2P(C)(C)=O)n1 (centres unmarked)
101 to 200 nM

Also check COc1cc(N2CCC(N3CCN(CCCCCCCCC#Cc4cccc5c4CN(C4CCC(=O)NC4=O)C5=O)CC3)CC2)c(C)cc1Nc1ncc(Br)c(Nc2ccc3nccnc3c2P(C)(C)=O)n1 (centres unmarked)
> 300 nM

Proceed to COc1cc(N2CCC3(CCN(CCCCCCC#Cc4cccc5c4CN(C4CCC(=O)NC4=O)C5=O)CC3)CC2)c(C)cc1Nc1ncc(Br)c(Nc2ccc3nccnc3c2P(C)(C)=O)n1 (centres unmarked)
1 to 100 nM

// repeat for COc1cc(N2CCC(N3CCN(CCCCCCCCC#Cc4ccc5c(c4)CN(C4CCC(=O)NC4=O)C5=O)CC3)CC2)ccc1Nc1ncc(Cl)c(Nc2ccccc2P(C)(C)=O)n1 (centres unmarked) and report
1 to 100 nM
